- study system: human MC3R (Homo sapiens)
- Construct: expressed in transfected cells; host or cells: HEK-293 cells stably expressing the GScAMP22F split-luciferase cAMP sensor (parent reporter line from Promega); MC3R clone generated in-house, G418 selection
- Sequence (P41968 whole entry): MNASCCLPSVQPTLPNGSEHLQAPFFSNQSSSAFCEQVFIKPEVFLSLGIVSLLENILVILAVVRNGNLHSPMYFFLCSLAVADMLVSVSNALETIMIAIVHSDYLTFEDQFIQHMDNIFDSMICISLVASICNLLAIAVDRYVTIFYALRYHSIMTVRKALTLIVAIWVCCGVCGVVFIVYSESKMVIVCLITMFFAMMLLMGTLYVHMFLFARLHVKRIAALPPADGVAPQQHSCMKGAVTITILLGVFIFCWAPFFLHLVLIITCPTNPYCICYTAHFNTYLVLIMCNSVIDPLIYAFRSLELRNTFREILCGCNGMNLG
- measurement protocol: split-luciferase cAMP sensor assay, agonist mode (measurement window 1), hMC3R
- Assay type: cell-based
- run conditions: MC4R versus MC3R
Positions of bridges follow the written chain, without caps; N, C: chain ends. Non-standard residues stand in square brackets, D forms with d. Residues, ends and D or L forms follow the SMILES beside them. d2Nal = N[C@H](Cc1ccc2ccccc2c1)C(=O)O; Cit = NC(=O)NCCC[C@H](N)C(=O)O; Aib = CC(C)(N)C(=O)O
Just a reminder that ties go to NOT MET: only MC4R selectivity vs MC3R strictly below 30 counts as MET.

molecule="C[C@H]1NC(=O)CSC[C@@H](C(N)=O)NC(=O)[C@H](Cc2c[nH]c3ccccc23)NC(=O)[C@H](CCCNC(=N)N)NC(=O)[C@@H](Cc2ccccc2)NC(=O)[C@H](CCCNC(=N)N)NC1=O [CTX-1642] ({CH2CO}-[dA]R[dF]RWC-NH2; thioether N-6)" answer_label=MET
molecule="CC(=O)N[C@@H](CCCNC(=N)N)C(=O)N[C@H]1CSSC[C@@H](C(N)=O)NC(=O)[C@@H](Cc2ccc3ccccc3c2)NC(=O)[C@H](CCCNC(=N)N)NC(=O)[C@@H](Cc2ccccc2)NC(=O)[C@H](CCCNC(=N)N)NC(=O)[C@@H](C)NC1=O [CTX-1264] (Ac-RC[dA]R[dF]R[d2Nal]C-NH2; disulfide 2-8 (inferred))" answer_label=MET
molecule="COc1ccc(C[C@H]2NC(=O)[C@H](CCCNC(N)=O)NC(=O)C(C)(C)NC(=O)[C@@H](NC(=O)[C@H](CCCNC(=N)N)NC(C)=O)CSSC[C@@H](C(N)=O)NC(=O)[C@H](Cc3ccccc3)NC(=O)[C@H](CCCNC(=N)N)NC2=O)cc1 [CTX-1299] (Ac-RC[Aib][Cit][dY](Me)RFC-NH2; disulfide 2-8)" answer_label="NOT MET"

**Q:** Input CC(=O)N[C@H]1CSSC[C@@H](C(N)=O)NC(=O)[C@H](Cc2ccccc2)NC(=O)[C@H](CCCNC(=N)N)NC(=O)[C@@H](Cc2ccccc2)NC(=O)[C@H](CCCNC(N)=O)NC(=O)CNC1=O [CTX-1639, cyclo(Cys-Gly-Cit-D-Phe-Arg-Phe-Cys)] (Ac-CG[Cit][dF]RFC-NH2; disulfide 1-7 (inferred)) ; condition: MC4R selectivity vs MC3R strictly below 30. Does it hold?
**A:** MET

**Q:** Find out if reported MC4R selectivity vs MC3R for CC1(C)NC(=O)CSC[C@@H](C(N)=O)NC(=O)[C@H](Cc2ccccc2)NC(=O)[C@H](CCCNC(=N)N)NC(=O)[C@@H](Cc2ccccc2)NC(=O)[C@H](Cc2c[nH]cn2)NC1=O [CTX-1650] ({CH2CO}-[Aib]H[dF]RFC-NH2; thioether N-6) is less than 30
**A:** NOT MET

**Q:** Would you kindly verify if MC4R selectivity vs MC3R of CC(=O)N[C@H]1CSSC[C@@H](C(N)=O)NC(=O)[C@H](Cc2c[nH]c3ccccc23)NC(=O)[C@H](CCCNC(=N)N)NC(=O)[C@@H](Cc2ccccc2)NC(=O)[C@H](Cc2c[nH]cn2)NC(=O)CNC1=O [CTX-1206, cyclo(Cys-Gly-His-D-Phe-Arg-Trp-Cys)] (Ac-CGH[dF]RWC-NH2; disulfide 1-7 (inferred)) is strictly less than 30?
**A:** MET
